Target: huFLT3-M227 stably expressed on Ramos cells (human) (UniProt P36888)
Sequence (P36888 27-993 T227M): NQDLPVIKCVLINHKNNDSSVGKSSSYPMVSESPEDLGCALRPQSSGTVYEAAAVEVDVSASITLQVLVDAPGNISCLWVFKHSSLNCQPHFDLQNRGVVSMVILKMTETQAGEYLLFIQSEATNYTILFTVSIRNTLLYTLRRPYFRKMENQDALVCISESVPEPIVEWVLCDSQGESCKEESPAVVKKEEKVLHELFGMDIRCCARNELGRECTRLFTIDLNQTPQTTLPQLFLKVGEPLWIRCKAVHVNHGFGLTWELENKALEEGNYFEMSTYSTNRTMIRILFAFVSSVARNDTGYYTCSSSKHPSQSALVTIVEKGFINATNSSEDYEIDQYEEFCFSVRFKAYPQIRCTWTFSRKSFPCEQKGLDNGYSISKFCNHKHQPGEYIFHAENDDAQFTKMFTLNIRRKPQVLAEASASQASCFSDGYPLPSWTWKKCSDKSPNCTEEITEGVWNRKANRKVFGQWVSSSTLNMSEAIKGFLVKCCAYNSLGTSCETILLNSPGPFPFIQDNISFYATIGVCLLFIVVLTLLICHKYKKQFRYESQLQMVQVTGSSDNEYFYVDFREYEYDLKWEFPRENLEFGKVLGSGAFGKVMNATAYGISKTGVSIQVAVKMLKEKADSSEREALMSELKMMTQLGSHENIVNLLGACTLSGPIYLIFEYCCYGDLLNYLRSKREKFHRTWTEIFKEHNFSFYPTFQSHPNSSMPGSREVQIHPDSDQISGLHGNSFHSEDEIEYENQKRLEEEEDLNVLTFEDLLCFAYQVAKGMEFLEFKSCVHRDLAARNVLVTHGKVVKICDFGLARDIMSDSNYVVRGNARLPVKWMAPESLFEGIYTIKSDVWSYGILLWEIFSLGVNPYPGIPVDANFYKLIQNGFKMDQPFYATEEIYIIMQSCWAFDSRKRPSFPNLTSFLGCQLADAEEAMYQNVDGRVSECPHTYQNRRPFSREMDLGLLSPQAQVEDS
Test: FACS on cells
test_readout: FACS geometric mean fold change over Jurkat parental

Recall and state the measured FACS geometric mean fold change over Jurkat parental for Polypeptide No. 201 (scFv, V domains shown) VH: QVQLVQSGAEVKKPGASVKVSCKASGGTFSSDGISWVRQAPGQGLEWMGWISAYHGHTNYAQKFQGRVTMTRDTSTSTVYMELSSLRSEDTAVYYCARGGKHSGSHRSYYYGMDVWGQGTTVTVSS VL: DIQMTQSPSSLSASVGDRVTITCRASHNIGNKLAWYQQKPGKAPKLLIYGATTLQSGVPSRFSGSGSGTDFTLTISSLQPEDFATYYCQQANSFPRTFGPGTKVDIKR .
< 2 fold

Recall and state the measured FACS geometric mean fold change over Jurkat parental for Polypeptide No. 230 (scFv, V domains shown) VH: QVQLVQSGAEVKKPGSSVKVSCKASGGTFSSNAINWVRQAPGQGLEWMGGIIPLFGTTNYAQKFQGRVTITADESTSTAYMELSSLRSEDTAVYYCARVLSGWYGTYYFDYWGQGTLVTVSS VL: EIVMTQSPATLSVSPGERATLSCRASQSVSADYIAWYQQKPGQAPRLLIYDVSTRASGIPARFSGSGSGTEFTLTISSLQSEDFAVYYCQHYGSSQVTFGQGTKVEIKR .
< 2 fold

Recall and state the measured FACS geometric mean fold change over Jurkat parental for Polypeptide No. 220 (scFv, V domains shown) VH: QVQLVQSGAEVKKPGASVKVSCKASGYTFTGYYMYWVRQAPGQGLEWMGIINPRGGITSYAQRFQGRVTMTRDTSTSTVYMELSSLRSEDTAVYYCARGSTSSGWPNGDMDVWGKGTTVTVSS VL: DIQMTQSPSSLSASVGDRVTITCRASQGIRNDLGWYQQKPGKAPKLLIYAASSLQSGVPSRFSGSGSGTDFTLTISSLQPEDFATYYCQQANRFPPTFGQGTKVEIKR .
< 2 fold
